measurement-target: T1, cynomolgus monkey CD19 on peripheral blood B cells (cynomolgus monkey (Macaca fascicularis), UniProt A0A2K5W8L9 20-557)
T1 construct: whole, on cells; also called cynomolgus monkey B cells
T1 sequence: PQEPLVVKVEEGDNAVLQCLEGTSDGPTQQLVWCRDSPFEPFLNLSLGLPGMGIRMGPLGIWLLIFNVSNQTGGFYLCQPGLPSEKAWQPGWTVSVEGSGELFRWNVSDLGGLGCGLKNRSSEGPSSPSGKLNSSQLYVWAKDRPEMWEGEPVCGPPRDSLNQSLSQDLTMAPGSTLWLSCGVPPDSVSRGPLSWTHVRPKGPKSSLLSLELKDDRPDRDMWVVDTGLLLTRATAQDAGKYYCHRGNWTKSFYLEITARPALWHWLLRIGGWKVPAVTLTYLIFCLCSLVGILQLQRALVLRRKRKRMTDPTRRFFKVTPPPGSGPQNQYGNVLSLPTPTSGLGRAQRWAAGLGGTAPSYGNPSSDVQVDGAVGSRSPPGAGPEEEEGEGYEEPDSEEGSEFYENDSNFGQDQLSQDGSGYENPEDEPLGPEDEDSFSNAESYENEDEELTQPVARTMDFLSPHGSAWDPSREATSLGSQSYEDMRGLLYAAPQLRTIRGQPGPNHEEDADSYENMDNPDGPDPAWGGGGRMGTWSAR
protocol-details: FACS, cynomolgus PBMC, CD20+ B cells
observation-type: Proportion of chimeric antibody positive cells to B cells (%) at 1 nM

1. F4.18.13 (antibody, human IgG1, V domains shown, human-murine chimeric antibody, human IgG1) VH: QVQLQQSGPELVKPGASVKISCKASGYAFSSFWMNWVKQRPGEGLEWIGRIYPGDGDTNYNGKFKGKATLTADDSSSTAYMQLSSLTSVDSAVYFCAREVIAAVVTTDFDYWGQGTTLTVSS VL: DIQMTQTTSSLSASLGDRVTISCRTSQDISNYLNWYLQKPDGTVKLLIYYTSGLHSGVPSRFSGSGSGTDYSLTISNLEPEDIATYFCQQGKTLPYTFGGGTKLEIK : 2%
2. F5.3.6 (antibody, human IgG1, V domains shown, human-murine chimeric antibody, human IgG1) VH: DVQLQESGPGLVKPSQSQSLTCSVTGYSITSGYYWNWIRQFPGNKLEWMGYISYDGSNNYNPSLKNRISITRDTSKNQFFLKLNSVTTEDTVTYYCARAPLTGDRYWYFDVWGTGTTVTVSS VL: DIVLTQSPASLAVSLGQRATISCRASQSVSTSSYSYMHWYQQKPGQTPKLLIKYASNLKSGVPARFSGSGSGTDFTLNIHPVEEEDTATYYCQHSWEIPPTFGGGTKLEIK : 2%
3. F4.82.11 (antibody, human IgG1, V domains shown, human-murine chimeric antibody, human IgG1) VH: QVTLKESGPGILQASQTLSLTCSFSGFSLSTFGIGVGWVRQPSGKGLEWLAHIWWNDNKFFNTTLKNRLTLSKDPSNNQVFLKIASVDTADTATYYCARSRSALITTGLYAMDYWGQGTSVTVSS VL: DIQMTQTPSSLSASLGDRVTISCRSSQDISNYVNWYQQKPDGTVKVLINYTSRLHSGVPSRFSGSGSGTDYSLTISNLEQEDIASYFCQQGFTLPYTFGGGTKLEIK : 97%
4. F4.49.11 (antibody, human IgG1, V domains shown, human-murine chimeric antibody, human IgG1) VH: DVQLRASGPGLVKPSQSLSLTCSVTGYSITSGYYWNWIRQFPGNKLEWMGCISYDGTNNYNPSLKNRISFTRDTSKNQFFLNLNSVTTEDSATYYCARRVYYRYDGVVDYWGQGTSVTVSS VL: ENVLTQSPAIMSASPGEKVTMTCSASSSVSYIHWYQQKSSTAPKLWIYDTSKLASGVPGRFSGSRSRNSYSLTISSMEAEDVATYYCFQGSGYPLTFGSGTKLEIK : 67%
5. F4.152.7 (antibody, human IgG1, V domains shown, human-murine chimeric antibody, human IgG1) VH: QVQLQQPGAELVKPGASVKLSCKASGYTFTSYWMHWVKQRPGQGLEWIGEIDPSDSYTNYNQKFKGKATLTADKSSSTAYMQLSGLTSEDSAVYHCARGGDYDGYYVMDYWGQGTSVTVSS VL: EIVLTQSPTTMAASPGEKITITCSASSSISSNYLHWYQQKPGFSPKLLIYRTSNLASGVPARFSGSGSGTSYSLTIGTMEADDVATYYCQQGSYIPRIFTFGSGTKLEIK : 2%
6. F4.37.6 (antibody, human IgG1, V domains shown, human-murine chimeric antibody, human IgG1) VH: QVQLQQSGAELARPGASVKLSCKASGYTFTSFWMQWLKQRPGQGLEWIGTIYPGDGDTRYTQKFKGKATLTADKSSNTAYMQLSSLASEDSAVYYCARGALSNYGGFAYWGQGTLVTVSA VL: NIVLTQSPASLAVSLGQRATISCRASESVDSYGHSFMHWYQQKPGQPPKLLIYLASNLESGVPARFSGSGSRTDFTLTIDPVEADDAATYYCQQNNEDPWTFGGGTKLEIK : 2%
7. F3.114.12 (antibody, human IgG1, V domains shown, human-murine chimeric antibody, human IgG1) VH: DVQLQESGPGLVKPSQSLSLTCSVTGYSITSGYDWNWIRQFPGNKLEWMGYISYDGKNNYNPSLRNRISITRDTSKNQFFLKLNSVTTEDTATYYCARRDLRGYFDVWGTGTTVTVSS VL: DIVLTQSPATLSVTPGDRVSLSCRASQSISNYLHWYQQKSHESPRLLIKYASLSISGIPSRFSGSGSGTDFTLSINSVETEDFGVYFCQQSNSWPLTFGAGTKLELK : 40%
8. F3.40.14 (antibody, human IgG1, V domains shown, human-murine chimeric antibody, human IgG1) VH: QAQLQQSGPELVKPGASVKISCKASGYAFSGSWMNWVQQRPGKGLEWIGRIYPGDGDTYYSGKFKDKAILTADTSSSTAYMQLSSLTSEDSAVYFCAQLRSRYVMDYWGQGASVTVSS VL: DIVLTQSPASLAVSLGQRATISCRASESVSIHGTHLMHWYQQKPGQPPRLLIYAASNLESGVPARFSGSGSETDFTLNIHPVEEEDAATYFCQQGIDDPYTFGGGTKLEIK : 1%
9. F3.133.14 (antibody, human IgG1, V domains shown, human-murine chimeric antibody, human IgG1) VH: QVQLQQPGAELVMPGASVKLSCKASGYTFTNYWMHWVKQRPGQGLEWIGEIDPSDYYANYNQKFKGKATLTVDKSSSTAYMQLSSLTSEDSAVYYCARSHYYANSYNYWGQGTTLTVSS VL: EIELTQSPTTMAASPGEKITITCSASSSISSDYLHWYQQKPGFSPKLLIYRTSNLASGLPARFSGSGSGTSYSLTIGTMEAEDVATYYCQQGSSVPRMLTFGAGTKLELK : 1%
